The reported numbers originate from paper PMC10786891.

I'd appreciate it if you could supply pKd values for the items below.
Target: T1, EsCas13d, nuclease-dead (Eubacterium siraeum, UniProt B0MS50, R295A;H300A;R849A;H854A)
T1 sequence: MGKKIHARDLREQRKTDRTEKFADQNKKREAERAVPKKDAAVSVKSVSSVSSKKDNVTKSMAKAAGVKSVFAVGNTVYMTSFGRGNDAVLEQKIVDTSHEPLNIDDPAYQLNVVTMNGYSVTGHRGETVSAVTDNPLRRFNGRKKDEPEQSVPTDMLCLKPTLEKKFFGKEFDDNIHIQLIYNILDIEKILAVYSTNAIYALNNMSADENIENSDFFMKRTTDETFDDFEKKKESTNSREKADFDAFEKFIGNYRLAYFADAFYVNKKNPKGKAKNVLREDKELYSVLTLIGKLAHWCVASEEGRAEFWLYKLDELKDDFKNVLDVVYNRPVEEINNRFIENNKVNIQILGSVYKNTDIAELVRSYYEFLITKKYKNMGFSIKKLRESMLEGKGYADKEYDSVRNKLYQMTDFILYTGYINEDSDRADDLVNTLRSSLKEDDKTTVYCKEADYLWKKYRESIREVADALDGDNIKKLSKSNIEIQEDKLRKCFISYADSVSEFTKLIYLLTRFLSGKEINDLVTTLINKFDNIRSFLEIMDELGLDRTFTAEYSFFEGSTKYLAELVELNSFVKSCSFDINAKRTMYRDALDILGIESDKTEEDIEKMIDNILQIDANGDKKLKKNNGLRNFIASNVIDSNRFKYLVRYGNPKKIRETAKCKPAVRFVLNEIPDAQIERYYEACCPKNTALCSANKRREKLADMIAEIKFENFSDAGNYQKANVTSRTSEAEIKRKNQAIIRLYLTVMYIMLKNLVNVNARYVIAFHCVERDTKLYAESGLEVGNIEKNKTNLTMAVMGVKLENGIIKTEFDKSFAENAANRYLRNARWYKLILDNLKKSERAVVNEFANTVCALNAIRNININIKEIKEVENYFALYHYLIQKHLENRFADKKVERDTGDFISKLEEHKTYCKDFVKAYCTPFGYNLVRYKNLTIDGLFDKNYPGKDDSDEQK
Test: crRNA (strand 1, pre-loaded); Mg2+; 40 mM Tris-HCl pH 7.5, 150 mM NaCl, 6 mM MgCl2, 1 mM DTT, 0.1% Tween-20, 0.2 mg/ml BSA; 25 C; 10 min per concentration, then washed
Details: tags: His6-TwinStrep-SUMO cleaved; N-terminal SNAP kept (SNAP-Surface 488); label: 3' end held by stalled T7 RNA polymerase
Give bare numbers, as −log10 of the molar value.

The examples below pair each entry with its known result.
Q) Supply pKd value. Item: target 1 insC 3' of 11,insG 3' of 4 (mixed) RNA 1: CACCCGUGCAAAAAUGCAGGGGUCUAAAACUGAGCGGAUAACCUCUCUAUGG RNA 2: GGGAAUGGAUCCACAUCUACGAAUUCGUACCAUAGAGAGGUCUAUCCGCGUCACCGAGAUCGGAAGAGCACACGU
A) 7.64

Q) Supply pKd value. Item: target 3 C1G,A9C (mixed) RNA 1: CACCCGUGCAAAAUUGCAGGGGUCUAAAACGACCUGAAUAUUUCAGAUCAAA RNA 2: GGGAAUGGAUCCACAUCUACGAAUUCGUUUUUGAUCUGAAAUCUUCAGGUGUGCAGAUCGGAAGAGCACACGU
A) 7.27

Q) Supply pKd value. Item: target 3 insA 3' of 6 (mixed) RNA 1: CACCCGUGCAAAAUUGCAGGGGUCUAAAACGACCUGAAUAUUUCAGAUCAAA RNA 2: GGGAAUGGAUCCACAUCUACGAAUUCGUUUUUGAUCUGAAAUAUUCAAGGUCUGCAGAUCGGAAGAGCACACGU
A) 8.11

Q) Supply pKd value. Item: target 1 MT 5'PFS UCA 3'PFS CGC (mixed) RNA 1: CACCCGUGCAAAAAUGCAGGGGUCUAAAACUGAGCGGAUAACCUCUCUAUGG RNA 2: GGGAAUGGAUCCACAUCUACGAAUUCUCACCAUAGAGAGGUUAUCCGCUCACGCAGAUCGGAAGAGCACACGU
A) 7.97

Q) Supply pKd value. Item: target 2 MT 5'PFS GAC 3'PFS UAG (mixed) RNA 1: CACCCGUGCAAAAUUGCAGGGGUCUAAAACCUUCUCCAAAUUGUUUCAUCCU RNA 2: GGGAAUGGAUCCACAUCUACGAAUUCGACAGGAUGAAACAAUUUGGAGAAGUAGAGAUCGGAAGAGCACACGU
A) 8.12

***
Q) Supply pKd value. Item: target 1 G12U,U19G (mixed) RNA 1: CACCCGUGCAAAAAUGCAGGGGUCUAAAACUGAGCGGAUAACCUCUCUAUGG RNA 2: GGGAAUGGAUCCACAUCUACGAAUUCGUACCAGAGAGAGUUUAUCCGCUCACCGAGAUCGGAAGAGCACACGU
A) 7.46
